- Test system: HS 578T breast
- assay protocol: NCI tumour cell line growth inhibition, 48 h
Reported TGI values are given for each entry in this list.
measure name: TGI

| chemical smiles | measure name | observed value |
| --- | --- | --- |
| O=C1Cc2cc(CCN3CCNCC3)c(Cl)cc2N1 | TGI | > 100 µM |
| CNC(=O)CNC(=O)N(C[C@@H]1CCCN1C(=O)[C@H](CC(C)C)NC(=O)OC(C)(C)C)C(C)C | TGI | > 100 µM |
| CCOC(=O)c1nc2cc(Cl)ccc2[nH]c1=O | TGI | > 100 µM |
| O=c1c2c3c(sc2nc2n1NC=NN2)CCCC3 | TGI | 52.7 µM |
| N=C(CC(=O)Nc1ccccn1)c1ccccc1 | TGI | > 100 µM |

* * *

- System: NCI/ADR-RES ovarian
- assay protocol: NCI tumour cell line growth inhibition, 48 h
The label depends only on TGI: class 1 if it is at least 10 µM, class 0 if it is smaller.

| molecule | category label |
| --- | --- |
| COc1ccc(C(O)c2ccccn2)cc1 (stereo not given) | class 1 |
| Cc1cc(N(CCNc2ccnc3cc(Cl)ccc23)Cc2ccc3c(c2)OCO3)nc(N2CCCC2)n1 | class 0 |
| COc1ccc(-c2oc3cc(O)c(OC)c(O)c3c(=O)c2O)cc1 | class 1 |
| COc1cc(S(=O)(=O)Nc2ccc(-c3csc(N4C(=O)CSC4c4ccccc4O)n3)cc2)ccc1Cl (stereo not given) | class 1 |
| Cc1ccc(-c2nc3sc(C)cn3c2/C=C2\C(=O)Nc3ccc(Cl)cc32)cc1 | class 1 |
| C[C@]12CCC(=O)C[C@@H]1CC[C@@H]1[C@@H]2CC[C@]2(C)[C@@H](OC(=O)N(CCCl)N=O)CC[C@@H]12 | class 1 |
| Nc1ccn(C2CCC(COP(=O)(O)OCC(O)COP(=O)(O)OCC3OC(n4cc(F)c(=O)[nH]c4=O)CC3O)O2)c(=O)n1 (stereo not given) | class 1 |
| C(=C/c1nnnn1-c1ccccc1)/Nc1ccccc1 | class 1 |
| COC(=O)CC1=C(C)/C(=C/c2[nH]c(-c3ccc[nH]3)cc2OC)N=C1C | class 0 |

* * *

- System: MALME-3M melanoma
- assay protocol: NCI tumour cell line growth inhibition, 48 h

| molecule | relation | TGI [µM] |
| --- | --- | --- |
| Cn1c(I)c(C#C[Si](C)(C)C)c(=O)[nH]c1=O | = | 4.25 |
| COC(=O)c1c(O)ccc2c1c1c(n2Cc2cccc(C)c2)C(=O)c2ccccc2C1 | = | 69.5 |
| Cc1cc(Br)ccc1N=Nc1c(C)nn(-c2ccccc2)c1-c1ccccc1 | > | 100 |
| Clc1ccc(-c2nc(NCc3ccco3)c3ccccc3n2)c(Cl)c1 | = | 32.4 |
| O=C(O)c1nn(-c2ccccc2)nc1-c1nn(-c2ccccc2)nc1C(=O)O | > | 100 |
| C(=N\NC1=NCCN1)/c1ccc2ccccc2c1 | = | 28.3 |
| O=S(O)c1cc(Cl)c(O)c(Cl)c1 | > | 100 |
| Brc1ccc(-c2cc3c(cc2C2SCCS2)OCO3)cc1 | > | 100 |
| COc1cc(-c2ccc[nH]2)[nH]c1/C=C1\N=C(C)C(CC(=O)OCC(C)(C)C)=C1C | = | 1.69 |
| CC(C)(C)[Si](C)(C)OC1[C@@H](COC(=O)NC(=O)CCl)O[C@@H](n2cnc3c(N)ncnc32)[C@H]1O[Si](C)(C)C(C)(C)C (stereo not given in full) | = | 2.01 |

* * *

Reported TGI values are given for each entry in this list.
- System: A498 renal
- assay protocol: NCI tumour cell line growth inhibition, 48 h
measure name: TGI

| chemical smiles | observed value |
| --- | --- |
| C=C(C)C(=O)Nc1ccc(-c2c(-c3ccc(Oc4nccc(C)n4)c(F)c3)c3c(N)ncnc3n2C)cc1 | 9.88 µM |
| O=C1[C@@H]2C(c3ccccc3[N+](=O)[O-])=NO[C@@H]2C(=O)N1c1ccc(Cc2ccc(N3C(=O)[C@H]4C(c5ccccc5[N+](=O)[O-])=NO[C@H]4C3=O)cc2)cc1 | > 100 µM |
| COc1ccc2[nH]c3c(c2c1)CC(=O)N1CCC[C@H](C1)CC31OCCCO1 | > 100 µM |
| CSc1nc(SC)c2c(C)cn(COCCOC(=O)c3ccccc3)c2n1 | > 100 µM |
| COc1cc2c[n+](C)c3c4cc(OC)c(OCc5ccccc5)cc4c(OCc4ccccc4)cc3c2cc1OC | > 100 µM |

* * *

- Tested on: A498 renal
- assay protocol: NCI tumour cell line growth inhibition, 48 h
The label depends only on TGI: t if it is at least 30 µM, f if it is smaller.

| compound | category label |
| --- | --- |
| N#CC(/C(CCCC(=O)Nc1cccc([N+](=O)[O-])c1)=N\NC(=O)c1c(O)ccc2ccccc12)c1nc2ccccc2s1 (stereo unspecified) | t |
| C(=C/c1nnnn1-c1ccccc1)/Nc1ccccc1 | t |
| COc1cc(-c2ccc[nH]2)[nH]c1/C=C1\N=C(C)C(CC(=O)OCC(C)(C)C)=C1C | f |
| O=C(N/C(=C\c1ccc(/C=C(\NC(=O)c2ccccc2)c2nc3c(O)nc(S)nc3[nH]2)cc1)c1nc2c(O)nc(S)nc2[nH]1)c1ccccc1 | t |
| COC(=O)c1cc(-c2ccc(S(C)(=O)=O)cc2)[nH]c1N/N=C/c1c(Cl)cccc1Cl | f |
| Cc1ccc(S(=O)(=O)N(CCNC(=O)c2cccc(O)c2O)c2cc3c4c(c2)Oc2cccc5c2C4(C)c2c(cccc2O3)O5)cc1 | t |
| Cc1cc(C)c2c(n1)S(=O)(=O)N(CCCN1CCN(c3cccc(Cl)c3)CC1)/C(=C(\O)c1ccc(Br)cc1)C2=O | t |
| CCOS(=O)(=O)c1ccc(-c2c3nc(c(-c4ccc(S(=O)(=O)OCC)cc4)c4ccc([nH]4)c(-c4ccc(S(=O)(=O)OCC)cc4)c4nc(c(-c5ccc(S(=O)(=O)OCC)cc5)c5ccc2[nH]5)C=C4)C=C3)cc1 | t |
| Cc1cc(N2CCOCC2)nc(NCc2cc(Nc3ccnc4cc(Cl)ccc34)ccc2F)n1 | f |
| N#COc1ccc(Oc2ccc(OC#N)cc2)cc1 | t |
| COc1ccc2c(c1)/c(=C/C#N)c1c3ccccc3[n+](C)n21 | f |
| O=C1CC(c2ccccc2)n2c(nc3ccccc32)N1 (stereo unspecified) | t |
| CN(CCCCCl)P(=O)(OCc1ccc([N+](=O)[O-])o1)OCC1OC(n2cc([N+](=O)[O-])c(=O)[nH]c2=O)CC1O (stereo unspecified) | t |
| Cc1ccc(-c2nc3sc(C)cn3c2/C=C2\C(=O)Nc3ccc(Cl)cc32)cc1 | t |
| Cc1c(-c2ccccn2)ccc2ccccc12 | t |
| CNC(=O)CNC(=O)N(C[C@@H]1CCCN1C(=O)[C@H](CC(C)C)NC(=O)OC(C)(C)C)C(C)C | t |
| CC(C)(C)[Si](C)(C)OC1[C@@H](COC(=O)NC(=O)CCl)O[C@@H](n2cnc3c(N)ncnc32)[C@H]1O[Si](C)(C)C(C)(C)C (stereo partly specified) | f |
| O=C(CI)Nc1ccc(Br)cc1 | t |
| CC(=O)OCC1OC(n2c(=S)n(-c3ccccc3)c(=O)c3cc(Br)ccc32)C(OC(C)=O)C1OC(C)=O (stereo unspecified) | t |
| COC(=O)C1(Cc2ccccc2)Cc2cc3c(cc2C1O)CCC3 (stereo unspecified) | t |
| Brc1ccc(-c2cc3c(cc2C2SCCS2)OCO3)cc1 | t |
| O=C1C=CC(=O)c2c1nc(CBr)[nH]c2=O | t |
| Cc1cc(N(CCNc2ccnc3cc(Cl)ccc23)Cc2ccc3c(c2)OCO3)nc(N2CCCC2)n1 | f |
| CCOC(=O)c1cc(C)nc2c1c(=O)n(-c1ccccc1)c(=O)n2CCCCN1CCN(c2ncccn2)CC1 | t |

* * *

- Tested on: DLD-1 colon
- assay protocol: NCI tumour cell line growth inhibition, 48 h
measure name: TGI

| molecule | observed value |
| --- | --- |
| CC1=C2C=CC(=O)C[C@@]2(C)CCC1 | > 100 µM |
| N#Cc1ccc(C2SCc3nc4ccccc4n32)cc1 (centres undefined) | > 100 µM |
| O=C(N/C(=C\c1ccc(/C=C(\NC(=O)c2ccccc2)c2nc3c(O)nc(S)nc3[nH]2)cc1)c1nc2c(O)nc(S)nc2[nH]1)c1ccccc1 | > 100 µM |
| CC1OC(O[C@@H]2C=C3CC[C@@H]4[C@H](CC[C@]5(C)[C@@H](c6ccc(=O)oc6)CC[C@]45O)[C@@]3(C)CC2)C(O)C(OC2OC(CO)C(O)C(O)C2O)C1O (some centres undefined) | 0.0253 µM |
| COC(=O)[C@@]12C3=NO[C@]1(C(=O)OC)C(O[Si](C)(C)C(C)(C)C)[C@@H](OC(C)=O)[C@@H](OC(C)=O)[C@@H]2[C@@H](OCc1ccccc1)CC3 (some centres undefined) | > 100 µM |
| N#COc1ccc(Oc2ccc(OC#N)cc2)cc1 | > 100 µM |
| CC(=O)[CH-]C(=O)c1ccccc1.CC(=O)[CH-]C(=O)c1ccccc1.CC(=O)[CH-]C(=O)c1ccccc1.[Ga+3] | 53.6 µM |
| COc1ccc(-c2oc3cc(O)c(OC)c(O)c3c(=O)c2O)cc1 | 30.8 µM |
| CC#COS(=O)(=O)c1ccc(C)cc1 | > 100 µM |
